Tested on: SNB-75
Experiment: NCI tumour cell line growth inhibition, 48 h
Active and inactive are the calls of the source. No stated cut-off is given here; in the data, active = GI50 up to about 1.1 µM and inactive = higher.
readoutType: GI50

> print(dat)
                                   molecule  readouttype        recordedvalue
1                CN(C)C(=S)/N=c1\ssc(=S)n1C         GI50  > 100 µM (inactive)
2  CC(C)(C)OC(=O)NCCC1CNc2ccccc21 (stereo not given)         GI50  > 100 µM (inactive)
3  COc1nc2c(c(=O)n1C)N=C(c1ccccc1)[C@H](C(CC(=O)c1ccccc1)c1ccccc1)C(c1ccccc1)N2 (stereo not given in full)         GI50     10 µM (inactive)
4  O=[N+]([O-])c1cccc(C2=NN(c3ccccc3)C3c4ccccc4OCC23)c1 (stereo not given)         GI50  > 100 µM (inactive)
5  O=C1C(Br)=CC2(C=C1Br)CCNC1=C2C(=O)c2ccccc2C1=O         GI50  > 100 µM (inactive)

Go through the list and state GI50 for each entry.
1. CC(C)CC(=O)NC(NC(C)C)(C(F)(F)F)C(F)(F)F
2. CS/C(=N/S(=O)(=O)c1ccc(Cl)cc1)NCCCN/C(=N\S(=O)(=O)c1ccc(Cl)cc1)SC
3. Nc1n[c-](N)[n+](=O)c(N)c1NCO
4. Cc1cc(Cc2c(F)c(F)c(Cc3cc(C)no3)c(F)c2F)on1
5. O=C1C=C(Nc2ccccc2C(=O)c2ccccc2)c2ccccc2C1=O

Response given:
> 100 µM (inactive)
15.8 µM (inactive)
> 100 µM (inactive)
29 µM (inactive)
96.6 µM (inactive)

* * *

System: A549
Experiment: NCI tumour cell line growth inhibition, 48 h
The source made the active and inactive calls. Rule as the data show it: active = GI50 up to about 1.1 µM and inactive = higher.
Answer each item with its documented GI50.

See these solved cases before continuing.
> print(dat)
                                   molecule       recordedvalue
1  O=[N+]([O-])c1ccc2[nH]c3c(-c4ccccc4)nccc3c2c1  15.6 µM (inactive)
2            C/C(=C\CO)CC/C=C(\C)CNc1ccccc1  50.8 µM (inactive)
3  O=C(/C=N/O)c1c(-c2ccccc2)[nH]c(-c2ccccc2)c1-c1ccccc1  14.1 µM (inactive)

Go through the list and state GI50 for each entry.
1. Cc1ccc(Nc2nc3ccccc3nc2NS(=O)(=O)c2ccc(N)cc2)cc1
2. Cc1ccc(-c2c(C#N)c(-c3ccccc3)n(NS(=O)(=O)c3ccccc3)c(=O)c2C#N)cc1
3. O=C(Nc1cccc(F)c1)c1cc2ccc(O)cc2o/c1=N\c1ccccc1F
4. CCC(C)C(Nc1c2ccccc2nc2c(C(=O)NCCN(C)C)cccc12)C(=O)O (centres undefined)
5. CNC(=O)N(CCC#N)CCN(C(=O)N(C)C)c1ccccc1
6. COc1ccccc1-c1cc(O)c2cccnc2n1

Response given:
1. 34.5 µM (inactive)
2. > 100 µM (inactive)
3. 3.38 µM (inactive)
4. 12.3 µM (inactive)
5. > 100 µM (inactive)
6. 55 µM (inactive)

* * *

Answer each item with its documented GI50.
Tested on: IGROV-1
Assay: NCI tumour cell line growth inhibition, 48 h
Active and inactive are the calls of the source. Rule as the data show it: active = GI50 up to about 1.1 µM and inactive = higher.

See these solved cases before continuing.
molecule	GI50
C[C@H](CS)C(=O)N1c2ccccc2C[C@H]1C(=O)O	> 100 µM (inactive)
COc1ccc(/N=C2\C(=N/c3ccc(OC)cc3)N(c3ccccc3[N+](=O)[O-])C(=S)N2c2ccc(OC)cc2)cc1	> 100 µM (inactive)

Go through the list and state GI50 for each entry.
1. CCOC(=O)CC1(N)CC2c3ccccc3OC(=O)C2C(=O)N1 (stereo not given)
2. O=C1CCCC2C(O)CCC[C@H]12 (stereo not given in full)
3. CN(N)/N=N/c1[nH]cnc1C(N)=O
4. COc1ccc(/C=C2\CCCCC2=O)cc1
5. C[C@]12CC[C@H]3[C@@H](CCC4=CC(=O)CC[C@@]43C)[C@@H]1CC[C@@H]2C(=O)COS(=O)(=O)c1ccc(Br)cc1

Response given:
1: > 100 µM (inactive); 2: > 100 µM (inactive); 3: 9.93 µM (inactive); 4: > 100 µM (inactive); 5: 1.6 µM (inactive)

Go through the list and state GI50 for each entry.
1. CC1(C)CC[C@]2(C(=O)O)CCC3(C)C(=CCC4[C@@]5(C)CC[C@H](OC6OCC(O)C(O)C6OC6OC(CO)C(O)C(O)C6O)C(C)(C)C5CC[C@]43C)C2C1 (stereo not given in full)
2. O=C1CC(NC(=O)C(F)(F)F)c2c(Br)sc(N3CCNCC3)c21 (stereo not given)
3. CNC1c2ccccc2C(=O)c2cc3c(cc21)OCCOCCOCCOCCO3 (stereo not given)

Response given:
2.67 µM (inactive)
> 100 µM (inactive)
> 100 µM (inactive)
